system: platelet aggregation (platelet-rich plasma); assay: Antithrombotic activity: inhibition of collagen-induced platelet aggregation in platelet-rich plasma (Born and Cross); type: cell-based, human (healthy volunteers); conditions: 50% change in optical density, human platelet-rich plasma, 10 min preincubation
pEC50: −log10 of the molar value.
OBSERVATION_TYPE: pEC50

Cn1c(-c2ccc(C(=N)N)cc2)nc2cc(C(=O)NCCC(=O)O)ccc21 : 7.15

P = COC(=O)CCNC(=O)c1cc2nc(-c3ccc(C(=N)N)cc3)n(C)c2cc1N(C)C(=O)OCC(C)C
Q = N=C(N)c1ccc(-c2nc3cc(NC(=O)CCC(=O)O)ccc3[nH]2)cc1
R = N=C(N)c1ccc(-c2nc3cc(C(=O)NCCC(=O)O)ccc3n2CCC(c2ccccc2)c2ccccc2)cc1
### Prompt Order by pEC50, ascending. Return value: ordered labels per request.
### Response Q, R, P
